tested.on: 5-HT transporter (Rattus norvegicus, UniProt P31652)
Construct: synaptosomes of rat brain areas are freshly isolated; from tissue; host or cells: rat brain synaptosomes (P2 fraction) from marrow and pons
Sequence (P31652 whole entry): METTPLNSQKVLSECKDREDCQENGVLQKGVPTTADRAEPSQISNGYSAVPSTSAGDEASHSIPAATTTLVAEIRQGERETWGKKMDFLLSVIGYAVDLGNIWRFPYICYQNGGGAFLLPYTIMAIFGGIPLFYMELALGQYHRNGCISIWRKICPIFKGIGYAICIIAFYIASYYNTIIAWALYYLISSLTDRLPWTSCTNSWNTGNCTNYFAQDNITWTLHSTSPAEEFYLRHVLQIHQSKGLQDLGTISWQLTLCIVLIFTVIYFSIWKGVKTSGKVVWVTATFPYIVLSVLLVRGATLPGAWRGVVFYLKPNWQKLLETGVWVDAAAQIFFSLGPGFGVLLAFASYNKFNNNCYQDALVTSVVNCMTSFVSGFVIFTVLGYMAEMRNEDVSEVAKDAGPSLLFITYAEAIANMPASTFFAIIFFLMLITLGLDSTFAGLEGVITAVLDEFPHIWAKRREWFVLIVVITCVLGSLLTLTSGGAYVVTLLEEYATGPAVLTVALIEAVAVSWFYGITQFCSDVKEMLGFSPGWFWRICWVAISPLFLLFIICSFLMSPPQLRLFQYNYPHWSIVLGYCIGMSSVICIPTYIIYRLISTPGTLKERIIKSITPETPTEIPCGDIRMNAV
measurement.description: Inhibition of 5-HT uptake in rat brain synaptosomes
Assay type: biochemical
experimental.parameters: read-out: Uptake 5-HT, % inhibition; Table II; rat, 1 μM
Label scheme for inhibition at 1 µM: range 1 = under 50%, range 2 = from 50% up to 80%, range 3 = 80% and over

Please review the entries below; each comes with its answer.
Cl.O=C1[C@H](Cc2ccccc2)NC2(CCNCC2)N1Cc1ccccc1 [Example 38, hydrochloride] = range 3
Cl.O=C(COc1ccccc1)N1CCC2(CC1)N[C@@H](Cc1ccccc1)C(=O)N2Cc1ccccc1 [Example 57, hydrochloride] = range 2
CCC(CC)C(=O)N1CCC2(CC1)N[C@@H](Cc1ccccc1)C(=O)N2Cc1ccccc1.Cl [Example 25, hydrochloride] = range 2
Cl.O=C(c1ccc(F)cc1)N1CCC2(CC1)N[C@@H](Cc1ccccc1)C(=O)N2Cc1ccccc1 [Example 62, hydrochloride] = range 3
Cl.O=C(CCc1ccccc1)N1CCC2(CC1)N[C@@H](Cc1ccccc1)C(=O)N2Cc1ccccc1 [Example 58, hydrochloride] = range 1

QUERY: For Cl.O=C(c1ccc2ccccc2c1)N1CCC2(CC1)N[C@@H](Cc1ccccc1)C(=O)N2Cc1ccccc1 [Example 59, hydrochloride] , which inhibition at 1 µM bin applies?
RESULT: range 2
